study target: T1, human EGFRvIII expressed on cells (human, UniProt P00533 298-1210)
T1 construct: the F98-npEGFRvIII line was obtained from ATCC and its construct is not described; also called F98-npEGFRvIII; F98-EGFRvIII
experiment description: flow cytometry, F98-npEGFRvIII against F98, F98-EGFRwt and A431 cells
property label: fold MFI on EGFRvIII expressing cell line over non-expressing cell lines

Would you please look over these solved cases?
binder	observed value
49B11 (antibody, V domains shown, Hybridoma supernatant (AlivaMab mouse); captured/detected via mouse Fc) VH: QVTLKESGPVLVKPTETLTLTCTVSGFSLSNVRMGVSWIRQPPGKALEWFAHIFSSDEKSIRRSLRSRLTLSKDTSKSQVVLTMTNMDPVDTATYYCARDSSNYEGYFDYWGQGTLVTVSS VL: EMEVTQSPATLSVSPGERATLSCRASQNIGSDLAWYQQQSGQAPRLLISGASTRATGVPTRFSGSGSGTDFTLTITSLQSEDFAVYYCQQYNDWPFTFGPGTKVDIK	≥ 10 fold
14C11 (antibody, V domains shown, Hybridoma supernatant (AlivaMab mouse); captured/detected via mouse Fc) VH: QVTLKESGPVLVKPTETLTLTCTVSGFSLNNARMGVSWIRQPPGKALEWFAHIFSTDEKSFRTSLRSRLTLSKDTSKSQVVLTMTNMDPVDTATYYCARDSSNYEGYFDYWGQGILVTVSS VL: EIVMTQSPATLSVSPGERATLSCRASQSVSNNLAWYQQKPGQAPRLLIYGASTRATGVPARFSGSDSGTEFSLTISSLQSEDFAVYFCQQYKDWPFTFGPGTKVEIK	≥ 10 fold

Here is another binder to look at.
// lookup fold MFI on EGFRvIII expressing cell line over non-expressing cell lines for 21E11 (antibody, V domains shown, Hybridoma supernatant (AlivaMab mouse); captured/detected via mouse Fc) VH: QVTLKESGPVLVKPTETLTLTCTVSGFSLSNVRMGVSWIRQPPGKALEWFAHIFSSDEKSIRRSLRSRLTLSKDTSKSQVVLTMTNMDPVDTATYYCARDSSNYEGYFDFWGQGTLVTVSS VL: DMVVTQSPATLSVSPGERATLSCRASQSVGSDLAWYQQPPGQSPRLLIYGASTRATGVPARFSGSGSGTDFTLTITSLESEDFAVYYCQQYNDWPFTFGPGTKVDIK
≥ 10 fold
